Dear all, I have gathered published pIC50 values for mushroom tyrosinase (Agaricus bisporus); the list follows.
Give only the number. pIC50 is defined as minus log10 of concentration in molar units.

Illustrative cases are given below, each with its answer.
{"COMPOUND": "Cn1ccc(-c2ccc(C(F)(F)F)cc2)c1C#N", "MEASURED_NUMBER": 4.91}
{"COMPOUND": "CCOC(=O)C1=C(C)N=C2SC=C(C)N2C1c1ccc(O)c(OC)c1 (stereo not shown)", "MEASURED_NUMBER": 4.39}
{"COMPOUND": "COc1ccc(/C=C2\\SC(=S)N(c3ccccc3)C2=O)cc1O", "MEASURED_NUMBER": 5.73}
{"COMPOUND": "COc1ccc(-c2coc3cc(O)ccc3c2=O)cc1", "MEASURED_NUMBER": 4.70}

-- ask Look up pIC50: O=C1/C(=C/c2ccc(O)cc2)SC(=S)N1c1ccccc1
-- reply 5.84

-- ask Now this one: Cn1ccc(-c2ccccc2Br)c1C#N
-- reply 5.07

---

Dear all, I have gathered published IC50 values for mushroom tyrosinase (Agaricus bisporus); the list follows.

Illustrative cases are given below, each with its answer.
{"MOLECULE": "N#Cc1c(-c2ccc(Cl)cc2)cc2n1Cc1ccccc1C2", "IC50": "5.57 µM"}
{"MOLECULE": "COc1ccc(/C=C2\\SC(=S)N(c3ccccc3)C2=O)cc1", "IC50": "> 200 µM"}
{"MOLECULE": "O=C1/C(=C/c2ccc(O)c(O)c2)SC(=S)N1c1ccccc1", "IC50": "1.38 µM"}
{"MOLECULE": "Cn1ccc(-c2ccccc2F)c1C#N", "IC50": "8.72 µM"}
{"MOLECULE": "O=C(CN1C(=O)S/C(=C\\c2cccc(Br)c2)C1=O)NCCc1c[nH]c2ccccc12", "IC50": "13.3 µM"}

-- ask Look up IC50: Cn1ccc(-c2ccc(C(F)(F)F)cc2)c1CNC(=O)OC(C)(C)C
-- reply > 200 µM

-- ask Now this one: CC(O)Cc1ccc(O)cc1 (stereo not shown)
-- reply 11.6 µM

-- ask Now this one: COc1cc(/C=C2\SC(=S)N(c3ccccc3)C2=O)cc(OC)c1OC
-- reply > 200 µM

-- ask Now this one: CCOC(=O)C1=C(C)N=C2SC=C(C)N2C1c1ccc(C)cc1 (stereo not shown)
-- reply > 250 µM

-- ask Now this one: N#Cc1c(-c2ccc(Cl)cc2)cc2n1CCCC2
-- reply 5.06 µM

-- ask Now this one: Cn1ccc(-c2cccc(Br)c2)c1C#N
-- reply 16.5 µM

-- ask Now this one: COc1cc(C(=O)OCCCCN=C(N)N)cc(OC)c1OC
-- reply 7.4 µM
